Reference source: patent US20230174488A1

# SYSTEM_NAME: CYP 3A4 (Homo sapiens)
# Sequence (P08684 whole entry): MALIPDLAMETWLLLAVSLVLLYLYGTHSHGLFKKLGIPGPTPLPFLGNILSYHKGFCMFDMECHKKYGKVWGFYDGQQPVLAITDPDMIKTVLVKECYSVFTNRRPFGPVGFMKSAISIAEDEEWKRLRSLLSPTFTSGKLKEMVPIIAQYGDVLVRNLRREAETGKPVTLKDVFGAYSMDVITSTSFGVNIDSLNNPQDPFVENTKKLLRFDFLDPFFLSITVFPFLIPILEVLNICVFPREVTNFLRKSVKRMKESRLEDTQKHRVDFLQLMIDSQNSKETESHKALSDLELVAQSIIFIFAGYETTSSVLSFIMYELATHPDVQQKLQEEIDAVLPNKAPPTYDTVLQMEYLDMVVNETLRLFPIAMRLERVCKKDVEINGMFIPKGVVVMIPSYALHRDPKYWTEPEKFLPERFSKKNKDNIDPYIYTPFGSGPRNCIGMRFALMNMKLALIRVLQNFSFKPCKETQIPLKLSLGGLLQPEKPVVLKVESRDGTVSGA
MEASUREMENT_TYPE: IC50 (nM)
Answer with a number only, understood to be in nM.

Q: Using the record for O=C(NC1CCC(F)(F)CC1)[C@@H](c1cncnc1)N(C(=O)[C@@H](F)Cl)c1ccc(-c2cncs2)cc1 (single isomer, unassigned) [INSCoV-614(1B)] , report its IC50.
Result: 1450

Q: Same read-out for CC(C(=O)NC1CCC(F)(F)CC1)(c1cncnc1)N(C(=O)CCl)c1ccc(-c2ccno2)cc1 (single isomer, unassigned) [INSCoV-601P(1A)] ?
Result: 3620

Q: // repeat for CC(C(=O)NC1CCC(F)(F)CC1)(c1cnccn1)N(C(=O)CCl)c1ccc(-c2ccns2)cc1 (stereo not drawn) [INSCoV-601N] and report
Result: 218
